SYSTEM_TESTED: Gag-Pol polyprotein (Woolly monkey sarcoma virus)
Sequence (P03359 642-1310 limits assumed): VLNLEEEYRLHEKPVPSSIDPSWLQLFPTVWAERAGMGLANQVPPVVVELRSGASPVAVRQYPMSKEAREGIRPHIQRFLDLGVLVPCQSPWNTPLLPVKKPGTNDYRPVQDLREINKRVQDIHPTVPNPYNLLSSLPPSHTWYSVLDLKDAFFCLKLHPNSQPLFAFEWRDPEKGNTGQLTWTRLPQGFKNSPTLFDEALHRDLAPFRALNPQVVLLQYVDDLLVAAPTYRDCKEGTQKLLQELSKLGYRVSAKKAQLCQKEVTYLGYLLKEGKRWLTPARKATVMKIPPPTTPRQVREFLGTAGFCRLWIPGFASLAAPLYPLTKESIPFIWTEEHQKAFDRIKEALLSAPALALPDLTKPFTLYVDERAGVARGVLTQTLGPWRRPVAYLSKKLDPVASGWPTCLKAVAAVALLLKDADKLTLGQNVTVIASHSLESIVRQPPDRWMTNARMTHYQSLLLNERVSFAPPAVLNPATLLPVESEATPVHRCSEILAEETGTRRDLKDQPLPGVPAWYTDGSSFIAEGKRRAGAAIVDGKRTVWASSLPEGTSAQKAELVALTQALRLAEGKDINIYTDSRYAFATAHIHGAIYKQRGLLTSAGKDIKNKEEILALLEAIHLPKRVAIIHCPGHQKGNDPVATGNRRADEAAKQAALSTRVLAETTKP
ASSAY_PROTOCOL: Ability to inhibit simian sarcoma virus reverse transcriptase
MEASUREMENT_PARAMETERS: read-out: IC50
MEASUREMENT_KIND: IC50 (µM)

COMPOUND	SYSTEM_TESTED	RECORDED_MEASUREMENT
COC1/C=C/OC2(C)Oc3c(C)c(O)c4c(O)c(c(/C=N/N5CCCCCCCCCC5)cc4c3C2=O)NC(=O)/C(C)=C\C=C\C(C)C(O)C(C)C(O)C(C)C(OC(C)=O)C1C (stereo not drawn)	Gag-Pol polyprotein (Woolly monkey sarcoma virus)	6.6

(1) COC1/C=C/OC2(C)Oc3c(C)c(O)c4c(O)c(c(/C=N/N5CCCCCCCCCCCCCCC5)cc4c3C2=O)NC(=O)/C(C)=C\C=C\C(C)C(O)C(C)C(O)C(C)C(OC(C)=O)C1C (stereo in doubt; 18)
(2) COc1cccc(CN2CCN(/N=C/c3cc4c5c6c(C)c(O)c4c(O)c3NC(=O)/C(C)=C\C=C\C(C)C(O)C(C)C(O)C(C)C(OC(C)=O)C(C)C(OC)/C=C/OC(C)(O6)C5=O)CC2)c1 (stereo not drawn)
Return label of the item with the larger IC50. Candidates: 1 , 2 . Choose, then provide that item's label.
2

* * *

ASSAY_PROTOCOL: The logarithm of the reciprocal of the concentration which produces 50% inhibition of mammalian alpha DNA polymerase.
MEASUREMENT_KIND: Log 1/C

MOLECULE	Log 1/C
COC1/C=C/OC2(C)Oc3c(C)c(O)c4c(O)c(c(/C=N/OCCCc5ccccc5)cc4c3C2=O)NC(=O)/C(C)=C\C=C\C(C)C(O)C(C)C(O)C(C)C(OC(C)=O)C1C (centres undefined)	4.46
COC1/C=C/OC2(C)Oc3c(C)c(O)c4c(O)c(c(/C=N/N5CCCCCCCCCCCCCCC5)cc4c3C2=O)NC(=O)/C(C)=C\C=C\C(C)C(O)C(C)C(O)C(C)C(OC(C)=O)C1C (stereo in doubt; 18)	4.6
CCCN(CCC)/N=C/c1cc2c3c4c(C)c(O)c2c(O)c1NC(=O)/C(C)=C\C=C\C(C)C(O)C(C)C(O)C(C)C(OC(C)=O)C(C)C(OC)/C=C/OC(C)(O4)C3=O (centres undefined)	4.19
COc1cccc(CN2CCN(/N=C/c3cc4c5c6c(C)c(O)c4c(O)c3NC(=O)/C(C)=C\C=C\C(C)C(O)C(C)C(O)C(C)C(OC(C)=O)C(C)C(OC)/C=C/OC(C)(O6)C5=O)CC2)c1 (centres undefined)	3.85

* * *

ASSAY_PROTOCOL: Ability to inhibit mouse alpha DNA polymerase
MEASUREMENT_KIND: IC50 (M l-1)

Worked examples, 2 molecules total:
MOLECULE	UNIT_ANNOTATION	RECORDED_MEASUREMENT
COC1/C=C/OC2(C)Oc3c(C)c(O)c4c(O)c(c(/C=N/Nc5ccc([N+](=O)[O-])cc5[N+](=O)[O-])cc4c3C2=O)NC(=O)/C(C)=C\C=C\C(C)C(O)C(C)C(O)C(C)C(OC(C)=O)C1C (stereo not drawn)	M l-1	0.000045
COC1/C=C/OC2(C)Oc3c(C)c(O)c4c(O)c(c(/C=N/NC5CCCCCCCCCCCCCC5)cc4c3C2=O)NC(=O)/C(C)=C\C=C\C(C)C(O)C(C)C(O)C(C)C(OC(C)=O)C1C (stereo not drawn)	M l-1	0.0000115

(a) COC1/C=C/OC2(C)Oc3c(C)c(O)c4c(O)c(c(/C=N/N5C(C)CN(Cc6ccc(C#N)cc6)CC5C)cc4c3C2=O)NC(=O)/C(C)=C\C=C\C(C)C(O)C(C)C(O)C(C)C(OC(C)=O)C1C (stereo not drawn)
(b) COC1/C=C/OC2(C)Oc3c(C)c(O)c4c(O)c(c(/C=N/N5CCN(N)CC5)cc4c3C2=O)NC(=O)/C(C)=C\C=C\C(C)C(O)C(C)C(O)C(C)C(OC(C)=O)C1C (stereo not drawn)
(c) COC1/C=C/OC2(C)Oc3c(C)c(O)c4c(O)c(c(/C=N/N5CCCCCCCCCCCCCCC5)cc4c3C2=O)NC(=O)/C(C)=C\C=C\C(C)C(O)C(C)C(O)C(C)C(OC(C)=O)C1C (stereo in doubt; 18)
(d) COC1/C=C/OC2(C)Oc3c(C)c(O)c4c(O)c(ccc4c3C2=O)NC(=O)/C(C)=C\C=C\C(C)C(O)C(C)C(O)C(C)C(OC(C)=O)C1C (stereo not drawn)
Parameters: sort_field (IC50), sort_dir (desc). Reply with the labels, ordered as the question asks.
d, b, a, c
(d: 0.00076 M l-1, b: 0.000165 M l-1, a: 0.000047 M l-1, c: 0.000025 M l-1)

(a) COC1/C=C/OC2(C)Oc3c(C)c(O)c4c(O)c(c(/C=N/N5CCCCCCCCCC5)cc4c3C2=O)NC(=O)/C(C)=C\C=C\C(C)C(O)C(C)C(O)C(C)C(OC(C)=O)C1C (stereo not drawn)
(b) COc1cccc(CN2CCN(/N=C/c3cc4c5c6c(C)c(O)c4c(O)c3NC(=O)/C(C)=C\C=C\C(C)C(O)C(C)C(O)C(C)C(OC(C)=O)C(C)C(OC)/C=C/OC(C)(O6)C5=O)CC2)c1 (stereo not drawn)
# return whichever of a and b has the smaller IC50 Choose, then provide that item's label.
a
(a: 0.000031 M l-1, b: 0.00014 M l-1)

* * *

ASSAY_PROTOCOL: Ability to inhibit mouse alpha DNA polymerase
MEASUREMENT_KIND: IC50 (M l-1)

COMPOUND	IC50 [M l-1]
COC1/C=C/OC2(C)Oc3c(C)c(O)c4c(O)c(c(/C=N/OC(c5ccccc5)c5ccccc5)cc4c3C2=O)NC(=O)/C(C)=C\C=C\C(C)C(O)C(C)C(O)C(C)C(OC(C)=O)C1C (stereo not drawn)	0.000024

(a) CCCCCN(CCCCC)/N=C/c1cc2c3c4c(C)c(O)c2c(O)c1NC(=O)/C(C)=C\C=C\C(C)C(O)C(C)C(O)C(C)C(OC(C)=O)C(C)C(OC)/C=C/OC(C)(O4)C3=O (stereo not drawn)
(b) CCCCCCCCN(CCCCCCCC)/N=C/c1cc2c3c4c(C)c(O)c2c(O)c1NC(=O)/C(C)=C\C=C\C(C)C(O)C(C)C(O)C(C)C(OC(C)=O)C(C)C(OC)/C=C/OC(C)(O4)C3=O (stereo in doubt; 8)
# return whichever of a and b has the smaller IC50 Choose, then provide that item's label.
b

* * *

ASSAY_PROTOCOL: Ability to inhibit mouse alpha DNA polymerase
MEASUREMENT_KIND: IC50 (M l-1)

Worked examples, 3 compounds total:
COMPOUND	UNIT_ANNOTATION	IC50
COC1/C=C/OC2(C)Oc3c(C)c(O)c4c(O)c(c(/C=N/N5C(C)CN(Cc6ccccc6)CC5C)cc4c3C2=O)NC(=O)/C(C)=C\C=C\C(C)C(O)C(C)C(O)C(C)C(OC(C)=O)C1C (stereo not given)	M l-1	0.000038
COC1/C=C/OC2(C)Oc3c(C)c(O)c4c(O)c(c(/C=N/N5CCCC5)cc4c3C2=O)NC(=O)/C(C)=C\C=C\C(C)C(O)C(C)C(O)C(C)C(OC(C)=O)C1C (stereo not given)	M l-1	0.00024
COC1/C=C/OC2(C)Oc3c(C)c(O)c4c(O)c(c(/C=N/N5CCCCCCCCCCCC5)cc4c3C2=O)NC(=O)/C(C)=C\C=C\C(C)C(O)C(C)C(O)C(C)C(OC(C)=O)C1C (stereo in doubt; 17)	M l-1	0.000024

(1) COC1/C=C/OC2(C)Oc3c(C)c(O)c4c(O)c(c(/C=N/OCCCc5ccccc5)cc4c3C2=O)NC(=O)/C(C)=C\C=C\C(C)C(O)C(C)C(O)C(C)C(OC(C)=O)C1C (stereo not given)
(2) COC1/C=C/OC2(C)Oc3c(C)c(O)c4c(O)c(c(O)cc4c3C2=O)NC(=O)/C(C)=C\C=C\C(C)C(O)C(C)C(O)C(C)C(OC(C)=O)C1C (stereo not given)
Return label of the item with the larger IC50. Candidates: 1 , 2 . Choose, then provide that item's label.
2

* * *

SYSTEM_TESTED: Gag-Pol polyprotein (Woolly monkey sarcoma virus)
ASSAY_PROTOCOL: Inhibition of simian sarcoma virus reverse transcriptase
MEASUREMENT_KIND: Log 1/C

Worked examples, 4 compounds total:
COMPOUND	RECORDED_MEASUREMENT
COC1/C=C/OC2(C)Oc3c(C)c(O)c4c(O)c(c(CN5CCNCC5)cc4c3C2=O)NC(=O)/C(C)=C\C=C\C(C)C(O)C(C)C(O)C(C)C(OC(C)=O)C1C (stereo unspecified)	2.84
COC1/C=C/OC2(C)Oc3c(C)c(O)c4c(O)c(c(/C=N/N5CCCCCCCCCC5)cc4c3C2=O)NC(=O)/C(C)=C\C=C\C(C)C(O)C(C)C(O)C(C)C(OC(C)=O)C1C (stereo unspecified)	5.18
CCCCCCCCO/N=C/c1cc2c3c4c(C)c(O)c2c(O)c1NC(=O)/C(C)=C\C=C\C(C)C(O)C(C)C(O)C(C)C(OC(C)=O)C(C)C(OC)/C=C/OC(C)(O4)C3=O (stereo unspecified)	6
CCCCCCCCN(CCCCCCCC)/N=C/c1cc2c3c4c(C)c(O)c2c(O)c1NC(=O)/C(C)=C\C=C\C(C)C(O)C(C)C(O)C(C)C(OC(C)=O)C(C)C(OC)/C=C/OC(C)(O4)C3=O (stereo in doubt; 8)	5.49

(a) CCN(CC)Cc1cc2c3c4c(C)c(O)c2c(O)c1NC(=O)/C(C)=C\C=C\C(C)C(O)C(C)C(O)C(C)C(OC(C)=O)C(C)C(OC)/C=C/OC(C)(O4)C3=O (stereo unspecified)
(b) COC1/C=C/OC2(C)Oc3c(C)c(O)c4c(O)c(c(C=O)cc4c3C2=O)NC(=O)/C(C)=C\C=C\C(C)C(O)C(C)C(O)C(C)C(OC(C)=O)C1C (stereo unspecified)
Return label of the item with the larger Log 1/C. Candidates: a , b . Choose, then provide that item's label.
a
(a: 4.4, b: 2.99)
